From: ChEMBL document CHEMBL4359892

- Test system: Human immunodeficiency virus 1
- assay-explanation: Antiviral activity against drug resistant HIV-1 harboring reverse transcriptase L100I mutant infected in human MT4 cells assessed as reduction in virus-induced cytopathic effect incubated for 5 days by MTT assay
- Format: functional, organism-based
- experimental-context: Human immunodeficiency virus 1, MT4, 120 h
pEC50: −log10 of the molar value.
Please note: Yes applies when pEC50 is 6 or greater, and No applies otherwise.

>>> assigned_label("Nc1ccn([C@@H]2CS[C@H](CO)O2)c(=O)n1")
"No"
>>> assigned_label("CCS(=O)(=O)NC(=O)c1[nH]c2ccc(Cl)cc2c1S(=O)(=O)c1cc(C)cc(C)c1")
"No"
>>> assigned_label("Cc1cc(C#N)cc(C)c1Oc1nc(Nc2ccc(C#N)cc2)nc(N)c1Br")
"Yes"
>>> assigned_label("Cc1cc(C)cc(S(=O)(=O)c2c(C(=O)NS(=O)(=O)c3ccc(F)cc3F)[nH]c3ccc(Cl)cc23)c1")
"No"
>>> assigned_label("Cc1cc(C)cc(S(=O)(=O)c2c(C(=O)NS(=O)(=O)c3ccccc3)[nH]c3ccc(Cl)cc23)c1")
"No"
>>> assigned_label("Cc1cc(C)cc(S(=O)(=O)c2c(C(=O)NS(=O)(=O)C3CC3)[nH]c3ccc(Cl)cc23)c1")
"No"
>>> assigned_label("CCOP(=O)(CCNC(=O)c1[nH]c2ccc(Cl)cc2c1S(=O)(=O)c1cc(C)cc(C)c1)OCC")
"No"
>>> assigned_label("Cc1cc(C)cc(S(=O)(=O)c2c(C(=O)NC3CN(Cc4n[nH]c(=O)n4C)C3)[nH]c3ccc(Cl)cc23)c1")
"Yes"
>>> assigned_label("Cc1cc(C)cc(S(=O)(=O)c2c(C(N)=O)[nH]c3ccc(Cl)cc23)c1")
"Yes"
>>> assigned_label("CCCS(=O)(=O)NC(=O)c1[nH]c2ccc(Cl)cc2c1S(=O)(=O)c1cc(C)cc(C)c1")
"No"

* * *

- System: Human immunodeficiency virus 1
- assay-explanation: Antiviral activity against drug resistant HIV-1 harboring reverse transcriptase Y188L mutant infected in human MT4 cells assessed as reduction in virus-induced cytopathic effect incubated for 5 days by MTT assay
- Format: functional, organism-based
- experimental-context: Human immunodeficiency virus 1, MT4, 120 h
Readings of EC50 for the listed compounds
quantity-name: EC50

>>> result("Cc1cc(C)cc(S(=O)(=O)c2c(C(=O)NS(=O)(=O)c3ccc(F)cc3F)[nH]c3ccc(Cl)cc23)c1")
"> 121 µM"
>>> result("CCOP(=O)(CCNC(=O)c1[nH]c2ccc(Cl)cc2c1S(=O)(=O)c1cc(C)cc(C)c1)OCC")
"> 131 µM"
>>> result("Cc1cc(C)cc(S(=O)(=O)c2c(C(=O)NS(=O)(=O)c3ccc(F)cc3)[nH]c3ccc(Cl)cc23)c1")
"> 253 µM"
>>> result("Cc1ccnc2c1NC(=O)c1cccnc1N2C1CC1 [NEVIRAPINE]")
"> 15 µM"
>>> result("CCCS(=O)(=O)NC(=O)c1[nH]c2ccc(Cl)cc2c1S(=O)(=O)c1cc(C)cc(C)c1")
"> 146 µM"
>>> result("Cc1cc(C)cc(S(=O)(=O)c2c(C(=O)NS(=O)(=O)C3CC3)[nH]c3ccc(Cl)cc23)c1")
"> 147 µM"
>>> result("Cc1cc(C)cc(S(=O)(=O)c2c(C(=O)NS(=O)(=O)C(F)(F)F)[nH]c3ccc(Cl)cc23)c1")
"> 141 µM"
>>> result("Cc1cc(C)cc(S(=O)(=O)c2c(C(=O)NS(=O)(=O)c3ccccc3)[nH]c3ccc(Cl)cc23)c1")
"> 167 µM"
>>> result("CCS(=O)(=O)NC(=O)c1[nH]c2ccc(Cl)cc2c1S(=O)(=O)c1cc(C)cc(C)c1")
"> 284 µM"
